Recorded values, source PubChem BioAssay AID2060905.

tested on: 282377-053-R-J1-PDC complex spheroid viability; assay: Anticancer human tumor 282377-053-R-J1-PDC patient-derived colon adenocarcinoma cell line growth inhibition [RAS]; conditions: second compound 0.0316 µM; first compound 1 µM; stronger effect = lower value
observable: viability, T/C (%)
Numbers only, in %.

molecule	observable	uom	readout.number
CC(Nc1ccc2c(c1)OCCn1cc(N3C(=O)OCC3C(F)F)nc1-2)C(N)=O (stereo unspecified) + C=CC(=O)N1CCN(c2nc(OCC3CCCN3C)nc3c(F)c(-c4nc(N)cc(C)c4C(F)(F)F)c(Cl)cc23)C(C)C1	viability, T/C	%	88.9

// for each molecule in input: emit viability, T/C
1. NC1c2ccccc2OC12CCN(c1cnc3c(N4CCCc5ncccc54)n[nH]c3n1)CC2 (stereo unspecified) + C#Cc1c(F)ccc2cc(O)cc(-c3ncc4c(N5CC6CCC(C5)N6)nc(OCC56CCCN5CC(F)C6)nc4c3F)c12
2. CC1(O)CCCC1n1c(=O)c(C(F)F)cc2cnc(NC3CCN(S(C)(=O)=O)CC3)nc21 (stereo unspecified) + C=CC(=O)N1CCN(c2nc(OCC3CCCN3C)nc3c(F)c(-c4nc(N)cc(C)c4C(F)(F)F)c(Cl)cc23)C(C)C1
3. CC(C)NCC(C(=O)N1CCN(c2ncnc3c2C(C)CC3O)CC1)c1ccc(Cl)cc1 (stereo unspecified) + C=CC(=O)N1CCN(c2nc(OCC3CCCN3C)nc3c(F)c(-c4nc(N)cc(C)c4C(F)(F)F)c(Cl)cc23)C(C)C1
4. C=CC(=O)Nc1cc(Nc2nccc(-c3cn(C)c4ccccc34)n2)c(OC)cc1N(C)CCN(C)C + C#Cc1c(F)ccc2cc(O)cc(-c3ncc4c(N5CC6CCC(C5)N6)nc(OCC56CCCN5CC(F)C6)nc4c3F)c12

1. 104
2. 110
3. 97.3
4. 110

Answer with the recorded viability, T/C for the molecule listed here: C[C@@H](NC(=O)c1ncnc(N)c1Cl)c1ncc(C(=O)Nc2cc(C(F)(F)F)c(Cl)cn2)s1 + C#Cc1c(F)ccc2cc(O)cc(-c3ncc4c(N5CC6CCC(C5)N6)nc(OCC56CCCN5CC(F)C6)nc4c3F)c12
86.5

----------
system: 282377-053-R-J1-PDC complex spheroid viability; experiment: Anticancer human tumor 282377-053-R-J1-PDC cell line growth inhibition [RAS]; conditions: curve of first compound; second compound 0.03 µM;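 also: spheroids exposed to agents for seven days before readout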
So I've got a bunch of compounds here, and I need their IC50 values.

Observe how each entry below is paired with its result.
compound	IC50
CC(C)n1nc(-c2ccc3oc(N)nc3c2)c2c(N)ncnc21 + CCn1c(-c2cccnc2C(C)OC)c2c3cc(ccc31)N1CCOC(CC(NC(=O)C(C(C)C)N(C)C(=O)C3(F)CCN(C(=O)C#CC(C)(C)N(C)C)CC3)C(=O)N3CCCC(N3)C(=O)OCC(C)(C)C2)C1	> 100 nM
CC1(C)CCC(Nc2ncc(C(F)(F)F)c(-c3c[nH]c4c(P(C)(C)=O)c(C#N)ccc34)n2)CN1 (centres undefined) + CCn1c(-c2cc(N3CCN(C)CC3)cnc2C(C)OC)c2c3cc(ccc31)-c1csc(n1)CC(NC(=O)C1CC1C)C(=O)N1CCCC(N1)C(=O)OCC(C)(C)C2	> 300 nM
Nc1ccn(C2OC(CO)C(O)C2(F)F)c(=O)n1 (centres undefined) + CCn1c(-c2cc(N3CCN(C)CC3)cnc2C(C)OC)c2c3cc(ccc31)-c1csc(n1)CC(NC(=O)C1CC1C)C(=O)N1CCCC(N1)C(=O)OCC(C)(C)C2	> 1000 nM

Attention now turns to another entry.
Answer with the recorded IC50 for the compound listed here: C=CC(=O)Nc1cc(Nc2nccc(-c3cn(C)c4ccccc34)n2)c(OC)cc1N(C)CCN(C)C + CCn1c(-c2cc(N3CCN(C)CC3)cnc2C(C)OC)c2c3cc(ccc31)-c1csc(n1)CC(NC(=O)C1CC1C)C(=O)N1CCCC(N1)C(=O)OCC(C)(C)C2
> 1000 nM

----------
So I've got a bunch of compounds here, and I need their pIC50 values.
system: 282377-053-R-J1-PDC complex spheroid viability; assay: Anticancer human tumor 282377-053-R-J1-PDC cell line growth inhibition [RAS]; settings: curve of first compound; second compound 0.3 µM;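 also: spheroids exposed to agents for seven days before readout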
pIC50: −log10 of the molar value.

compound	study.target	result
CC(=O)OC12COC1CC(O)C1(C)C(=O)C(O)C3=C(C)C(OC(=O)C(O)C(NC(=O)OC(C)(C)C)c4ccccc4)CC(O)(C(OC(=O)c4ccccc4)C21)C3(C)C (centres undefined) + CCn1c(-c2cccnc2C(C)OC)c2c3cc(ccc31)N1CCOC(CC(NC(=O)C(C(C)C)N(C)C(=O)C3(F)CCN(C(=O)C#CC(C)(C)N(C)C)CC3)C(=O)N3CCCC(N3)C(=O)OCC(C)(C)C2)C1	282377-053-R-J1-PDC complex spheroid viability	< 5.00
CC1(C)CCC(Nc2ncc(C(F)(F)F)c(-c3c[nH]c4c(P(C)(C)=O)c(C#N)ccc34)n2)CN1 (centres undefined) + CCn1c(-c2cccnc2C(C)OC)c2c3cc(ccc31)N1CCOC(CC(NC(=O)C(C(C)C)N(C)C(=O)C3(F)CCN(C(=O)C#CC(C)(C)N(C)C)CC3)C(=O)N3CCCC(N3)C(=O)OCC(C)(C)C2)C1	282377-053-R-J1-PDC complex spheroid viability	< 6.52

// for each compound in input: emit pIC50
1. C=CC(=O)Nc1cc(Nc2nccc(-c3cn(C)c4ccccc34)n2)c(OC)cc1N(C)CCN(C)C + CCn1c(-c2cccnc2C(C)OC)c2c3cc(ccc31)N1CCOC(CC(NC(=O)C(C(C)C)N(C)C(=O)C3(F)CCN(C(=O)C#CC(C)(C)N(C)C)CC3)C(=O)N3CCCC(N3)C(=O)OCC(C)(C)C2)C1
2. CCC(CC)c1cc(NC2CCC(N)C2)n2nccc2n1 (centres undefined) + CCn1c(-c2cc(N3CCN(C)CC3)cnc2C(C)OC)c2c3cc(ccc31)-c1csc(n1)CC(NC(=O)C1CC1C)C(=O)N1CCCC(N1)C(=O)OCC(C)(C)C2

["< 6.00", 5.74]

----------
So I've got a bunch of compounds here, and I need their viability, T/C values.
System: 282377-053-R-J1-PDC complex spheroid viability
Assay: Anticancer human tumor 282377-053-R-J1-PDC cell line growth inhibition [RAS];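 also: spheroids exposed to agents for seven days before readout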;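 as to viability, T/C: luminescence viability as percent of DMSO vehicle control wells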
Conditions: second compound 0.0316 µM; first compound 1 µM; stronger effect = lower value
Excerpt: RAS pathway inhibitors in Combinations in Complex Spheroids A high-throughput screen of multi-cell type tumor spheroids was designed to identify active combinations of RAS pathway inhibitors and targeted small molecules. Complex spheroids include a stromal component modeled by human endothelial cells (HUVEC) and fibroblasts modeled by human mesenchymal stem cells (MSCs). […] Compounds. […] If the clinical Cmax for an agent had not been determined, the highest concentration tested was 10 microM. […]
Numbers only, in %.

Observe how each entry below is paired with its result.
compound	observable	uom	readout.number
C=CC(=O)N1CCN(c2nc(OCC3CCCN3C)nc3c(F)c(-c4nc(N)cc(C)c4C(F)(F)F)c(Cl)cc23)C(C)C1 (centres undefined) + C#Cc1c(F)ccc2cc(O)cc(-c3ncc4c(N5CC6CCC(C5)N6)nc(OCC56CCCN5CC(F)C6)nc4c3F)c12	viability, T/C	%	123
CC(=O)OC12COC1CC(O)C1(C)C(=O)C(O)C3=C(C)C(OC(=O)C(O)C(NC(=O)OC(C)(C)C)c4ccccc4)CC(O)(C(OC(=O)c4ccccc4)C21)C3(C)C (centres undefined) + C#Cc1c(F)ccc2cc(O)cc(-c3ncc4c(N5CC6CCC(C5)N6)nc(OCC56CCCN5CC(F)C6)nc4c3F)c12	viability, T/C	%	29.7
CCN1CCN(Cc2ccc(Nc3ncc(F)c(-c4cc(F)c5nc(C)n(C(C)C)c5c4)n3)nc2)CC1 + C=CC(=O)N1CCN(c2nc(OCC3CCCN3C)nc3c(F)c(-c4nc(N)cc(C)c4C(F)(F)F)c(Cl)cc23)C(C)C1	viability, T/C	%	132

Answer with the recorded viability, T/C for the compound listed here: CC(=O)OC12COC1CC(O)C1(C)C(=O)C(O)C3=C(C)C(OC(=O)C(O)C(NC(=O)OC(C)(C)C)c4ccccc4)CC(O)(C(OC(=O)c4ccccc4)C21)C3(C)C (centres undefined) + C=CC(=O)N1CCN(c2nc(OCC3CCCN3C)nc3c(F)c(-c4nc(N)cc(C)c4C(F)(F)F)c(Cl)cc23)C(C)C1
26.9

----------
system: 282377-053-R-J1-PDC complex spheroid viability; assay: Anticancer human tumor 282377-053-R-J1-PDC cell line growth inhibition [RAS]; conditions: second compound 0.03 µM; first compound 0.316 µM; stronger effect = lower value;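 also: spheroids exposed to agents for seven days before readout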;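 as to viability, T/C: luminescence viability as percent of DMSO vehicle control wells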
So I've got a bunch of compounds here, and I need their viability, T/C values.
Answers are plain numbers, in %.

compound	uom	readout.number
CC(C)NCC(C(=O)N1CCN(c2ncnc3c2C(C)CC3O)CC1)c1ccc(Cl)cc1 (configuration not stated) + CCn1c(-c2cc(N3CCN(C)CC3)cnc2C(C)OC)c2c3cc(ccc31)-c1csc(n1)CC(NC(=O)C1CC1C)C(=O)N1CCCC(N1)C(=O)OCC(C)(C)C2	%	82.5

Answer with the recorded viability, T/C for the compound listed here: NC1c2ccccc2OC12CCN(c1cnc3c(N4CCCc5ncccc54)n[nH]c3n1)CC2 (configuration not stated) + CCn1c(-c2cccnc2C(C)OC)c2c3cc(ccc31)N1CCOC(CC(NC(=O)C(C(C)C)N(C)C(=O)C3(F)CCN(C(=O)C#CC(C)(C)N(C)C)CC3)C(=O)N3CCCC(N3)C(=O)OCC(C)(C)C2)C1
116
